- ASSAYED_TARGET: Peroxisome proliferator-activated receptor delta (Homo sapiens, UniProt Q03181)
- MEASUREMENT_DESCRIPTION: Antagonist activity at PPARdelta LBD (unknown origin) assessed as increase in fluorescein labeled SMRT-ID2 corepressor peptide requirement by TR-FRET assay
OBSERVED_PROPERTY: EC50 (µM)
The reply should be a number in µM, with the unit left off.

EC50 for `O[C@@H]1[C@H](O)CO[C@H]1Cn1cnc2c(NCc3cccc(Br)c3)nc(Cl)nc21` ?
26.4

###

- ASSAYED_TARGET: Peroxisome proliferator-activated receptor alpha (Homo sapiens) (UniProt Q07869)
- Sequence (Q07869 whole entry): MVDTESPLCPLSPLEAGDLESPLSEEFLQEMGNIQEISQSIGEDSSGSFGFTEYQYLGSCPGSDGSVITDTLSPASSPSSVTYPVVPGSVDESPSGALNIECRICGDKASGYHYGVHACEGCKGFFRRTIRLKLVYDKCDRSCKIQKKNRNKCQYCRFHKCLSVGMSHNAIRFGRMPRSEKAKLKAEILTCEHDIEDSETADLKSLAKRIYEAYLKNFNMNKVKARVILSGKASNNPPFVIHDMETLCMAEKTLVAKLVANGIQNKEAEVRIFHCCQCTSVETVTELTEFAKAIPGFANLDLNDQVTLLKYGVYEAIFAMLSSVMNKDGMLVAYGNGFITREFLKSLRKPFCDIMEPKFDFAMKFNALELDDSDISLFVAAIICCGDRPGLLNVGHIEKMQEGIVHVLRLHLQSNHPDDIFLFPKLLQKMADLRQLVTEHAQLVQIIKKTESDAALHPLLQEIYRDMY
- MEASUREMENT_DESCRIPTION: Binding affinity to PPARalpha (unknown origin) at 30 uM by TR-FRET based LanthaScreen competitive binding assay relative to control
Each entry falls into one class according to its Activity; the ranges are class 1 = under 4%, class 2 = from 4% up to 6%, class 3 = 6% and over

Where would `O[C@@H]1[C@H](O)[C@@H]2C[C@@H]2[C@H]1Cn1cnc2c(NCc3ccccc3I)nc(Cl)nc21` land among the classes by reported Activity?
class 1

Where would `O[C@@H]1[C@H](O)[C@@H]2C[C@@H]2[C@H]1Cn1cnc2c(NCc3cccc(F)c3)ncnc21` land among the classes by reported Activity?
class 3

Where would `O[C@@H]1[C@H](O)C=C[C@H]1Cn1cnc2c(NCc3cccc(Br)c3)ncnc21` land among the classes by reported Activity?
class 1

Where would `O[C@H]1[C@H](Cn2cnc3c(NCc4cccc(Cl)c4)nc(Cl)nc32)CC[C@H]1O` land among the classes by reported Activity?
class 2

Where would `O[C@@H]1[C@H](O)CO[C@H]1Cn1cnc2c(NCc3cccc(Br)c3)nc(Cl)nc21` land among the classes by reported Activity?
class 1

Where would `O[C@@H]1[C@H](O)[C@@H]2C[C@@H]2[C@H]1Cn1cnc2c(NCc3cccc(I)c3)ncnc21` land among the classes by reported Activity?
class 2

Where would `O[C@@H]1C[C@@H]2C[C@]2(Cn2cnc3c(NCc4cccc(Cl)c4)ncnc32)[C@@H]1O` land among the classes by reported Activity?
class 3

Where would `O[C@H]1[C@H](Cn2cnc3c(NCc4cccc(F)c4)ncnc32)CC[C@H]1O` land among the classes by reported Activity?
class 3

Where would `O[C@@H]1[C@H](O)[C@@H]2C[C@@H]2[C@H]1Cn1cnc2c(NCc3cccc(F)c3)nc(Cl)nc21` land among the classes by reported Activity?
class 1

Where would `O[C@H]1[C@H](Cn2cnc3c(NCc4cccc(F)c4)nc(Cl)nc32)CC[C@H]1O` land among the classes by reported Activity?
class 3

Where would `COC(=O)c1sccc1S(=O)(=O)Nc1ccc(Nc2ccccc2)cc1OC` land among the classes by reported Activity?
class 3

Where would `O[C@@H]1[C@H](O)C=C[C@H]1Cn1cnc2c(NCc3cccc(Cl)c3)ncnc21` land among the classes by reported Activity?
class 1

Where would `O[C@H]1[C@H](Cn2cnc3c(NCc4cccc(I)c4)ncnc32)CC[C@H]1O` land among the classes by reported Activity?
class 2

Where would `O[C@@H]1C[C@@H]2C[C@]2(Cn2cnc3c(NCc4cccc(F)c4)nc(Cl)nc32)[C@@H]1O` land among the classes by reported Activity?
class 1

Where would `O[C@@H]1C[C@@H]2C[C@]2(Cn2cnc3c(NCc4cccc(I)c4)ncnc32)[C@@H]1O` land among the classes by reported Activity?
class 3

Where would `O[C@@H]1[C@H](O)[C@@H]2C[C@@H]2[C@H]1Cn1cnc2c(NCc3ccc(I)cc3)nc(Cl)nc21` land among the classes by reported Activity?
class 1

Where would `COc1cccc(CNc2nc(Cl)nc3c2ncn3C[C@H]2[C@H](O)[C@H](O)[C@@H]3C[C@H]23)c1` land among the classes by reported Activity?
class 3

Where would `O[C@@H]1C[C@@H]2C[C@]2(Cn2cnc3c(NCc4cccc(Br)c4)ncnc32)[C@@H]1O` land among the classes by reported Activity?
class 2

Where would `Cc1cc(SCc2sc(-c3ccc(C(F)(F)F)cc3)nc2C)ccc1OCC(=O)O` land among the classes by reported Activity?
class 3

Where would `O[C@@H]1[C@H](O)C=C[C@H]1Cn1cnc2c(NCc3cccc(F)c3)ncnc21` land among the classes by reported Activity?
class 2

Where would `O[C@@H]1[C@H](O)[C@@H]2C[C@@H]2[C@H]1Cn1cnc2c(NCc3cccc(Br)c3)ncnc21` land among the classes by reported Activity?
class 3

Where would `O[C@H]1[C@H](Cn2cnc3c(NCc4cccc(Br)c4)ncnc32)CC[C@H]1O` land among the classes by reported Activity?
class 3

Where would `O[C@@H]1C[C@@H]2C[C@]2(Cn2cnc3c(NCc4cccc(F)c4)ncnc32)[C@@H]1O` land among the classes by reported Activity?
class 1

Where would `O[C@@H]1[C@H](O)C=C[C@H]1Cn1cnc2c(NCc3cccc(F)c3)nc(Cl)nc21` land among the classes by reported Activity?
class 3

Where would `O[C@@H]1[C@H](O)[C@@H]2C[C@@H]2[C@H]1Cn1cnc2c(NCc3cccc(Cl)c3)nc(Cl)nc21` land among the classes by reported Activity?
class 1

###

- ASSAYED_TARGET: Peroxisome proliferator-activated receptor delta (Homo sapiens, UniProt Q03181)
- Sequence (Q03181 whole entry): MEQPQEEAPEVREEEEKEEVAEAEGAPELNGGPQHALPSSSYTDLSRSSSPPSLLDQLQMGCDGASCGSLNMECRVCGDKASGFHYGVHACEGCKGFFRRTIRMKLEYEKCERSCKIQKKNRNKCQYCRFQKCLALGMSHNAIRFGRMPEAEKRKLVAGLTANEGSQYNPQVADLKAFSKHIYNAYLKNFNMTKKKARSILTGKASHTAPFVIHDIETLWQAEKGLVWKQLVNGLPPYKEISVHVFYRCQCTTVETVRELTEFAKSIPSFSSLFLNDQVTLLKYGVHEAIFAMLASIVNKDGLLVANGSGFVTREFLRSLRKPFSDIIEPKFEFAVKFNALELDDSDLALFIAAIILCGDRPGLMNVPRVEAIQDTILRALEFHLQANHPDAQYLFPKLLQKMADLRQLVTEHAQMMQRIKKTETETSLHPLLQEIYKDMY
- MEASUREMENT_DESCRIPTION: Binding affinity to PPARdelta (unknown origin) assessed as inhibition constant by TR-FRET based LanthaScreen competitive binding assay
OBSERVED_PROPERTY: pKi
Would you please state pKi, meaning minus log10 of the concentration in mol/L, as a bare number?

pKi for `O[C@@H]1[C@H](O)[C@@H]2C[C@@H]2[C@H]1Cn1cnc2c(NCc3ccc(I)cc3)nc(Cl)nc21` ?
5.94

pKi for `O[C@@H]1[C@H](O)CO[C@H]1Cn1cnc2c(NCc3cccc(Br)c3)nc(Cl)nc21` ?
6.43

pKi for `O[C@@H]1[C@H](O)[C@@H]2C[C@@H]2[C@H]1Cn1cnc2c(NCc3cccc(Cl)c3)nc(Cl)nc21` ?
6.01

pKi for `COc1cccc(CNc2nc(Cl)nc3c2ncn3C[C@H]2[C@H](O)[C@H](O)[C@@H]3C[C@H]23)c1` ?
6.53

pKi for `O[C@H]1[C@H](Cn2cnc3c(NCc4cccc(Cl)c4)nc(Cl)nc32)CC[C@H]1O` ?
5.79

pKi for `O[C@@H]1[C@H](O)C=C[C@H]1Cn1cnc2c(NCc3cccc(Cl)c3)nc(Cl)nc21` ?
5.60

###

- ASSAYED_TARGET: Peroxisome proliferator-activated receptor gamma (Homo sapiens)
- Sequence (P37231 whole entry): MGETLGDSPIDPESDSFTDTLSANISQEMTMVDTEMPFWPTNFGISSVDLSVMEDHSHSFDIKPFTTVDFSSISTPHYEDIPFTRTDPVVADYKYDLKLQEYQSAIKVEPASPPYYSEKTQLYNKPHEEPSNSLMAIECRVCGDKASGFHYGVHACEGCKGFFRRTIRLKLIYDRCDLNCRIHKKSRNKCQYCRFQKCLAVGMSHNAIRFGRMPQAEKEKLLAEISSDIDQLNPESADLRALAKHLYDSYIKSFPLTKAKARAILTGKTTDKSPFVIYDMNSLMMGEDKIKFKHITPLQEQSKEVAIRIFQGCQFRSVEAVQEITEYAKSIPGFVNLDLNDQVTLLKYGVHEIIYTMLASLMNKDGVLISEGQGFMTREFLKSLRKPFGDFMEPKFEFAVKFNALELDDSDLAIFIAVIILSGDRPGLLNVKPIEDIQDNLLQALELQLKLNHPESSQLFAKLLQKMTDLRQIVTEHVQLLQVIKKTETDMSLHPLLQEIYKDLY
- MEASUREMENT_DESCRIPTION: Binding affinity to PPARgamma (unknown origin) assessed as inhibition constant by TR-FRET based LanthaScreen competitive binding assay
Please provide measured Ki for the entries that follow.

Ki for `O[C@@H]1[C@H](O)CO[C@H]1Cn1cnc2c(NCc3cccc(Br)c3)nc(Cl)nc21` ?
3.6 µM

Ki for `O[C@@H]1[C@H](O)[C@@H]2C[C@@H]2[C@H]1Cn1cnc2c(NCc3ccccc3I)nc(Cl)nc21` ?
2.3 µM

###

- ASSAYED_TARGET: Peroxisome proliferator-activated receptor delta (Homo sapiens) (UniProt Q03181)
- MEASUREMENT_DESCRIPTION: Binding affinity to PPARdelta (unknown origin) at 30 uM by TR-FRET based LanthaScreen competitive binding assay relative to control
OBSERVED_PROPERTY: Activity (%)
The reply should be a number in %, with the unit left off.

Activity for `O[C@@H]1C[C@@H]2C[C@]2(Cn2cnc3c(NCc4cccc(Cl)c4)ncnc32)[C@@H]1O` ?
2

Activity for `O[C@@H]1[C@H](O)[C@@H]2C[C@@H]2[C@H]1Cn1cnc2c(NCc3ccccc3I)nc(Cl)nc21` ?
34.6

Activity for `O[C@H]1[C@H](Cn2cnc3c(NCc4cccc(Cl)c4)ncnc32)CC[C@H]1O` ?
2

Activity for `O[C@H]1[C@H](Cn2cnc3c(NCc4cccc(I)c4)ncnc32)CC[C@H]1O` ?
39.4

Activity for `O[C@H]1[C@H](Cn2cnc3c(NCc4cccc(F)c4)ncnc32)CC[C@H]1O` ?
4.8
